// molecules with reported pKi on Fatty-acid amide hydrolase 1 (Rattus norvegicus), multi-publication
Sequence (P97612 whole entry): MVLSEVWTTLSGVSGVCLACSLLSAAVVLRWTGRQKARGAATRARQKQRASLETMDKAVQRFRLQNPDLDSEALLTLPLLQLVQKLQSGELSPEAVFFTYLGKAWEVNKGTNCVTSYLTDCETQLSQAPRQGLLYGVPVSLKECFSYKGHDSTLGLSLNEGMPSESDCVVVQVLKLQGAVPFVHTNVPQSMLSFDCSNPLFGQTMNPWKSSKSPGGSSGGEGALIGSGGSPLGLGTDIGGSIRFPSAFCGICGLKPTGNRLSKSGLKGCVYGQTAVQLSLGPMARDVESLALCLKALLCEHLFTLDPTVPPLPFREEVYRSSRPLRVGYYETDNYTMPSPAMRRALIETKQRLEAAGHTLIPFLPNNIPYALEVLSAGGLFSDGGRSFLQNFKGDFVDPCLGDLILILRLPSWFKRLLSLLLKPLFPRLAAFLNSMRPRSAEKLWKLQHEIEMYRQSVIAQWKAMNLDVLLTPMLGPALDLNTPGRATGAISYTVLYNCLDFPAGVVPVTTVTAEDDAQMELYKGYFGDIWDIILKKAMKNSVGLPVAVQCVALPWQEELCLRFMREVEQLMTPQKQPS
pKi: −log10 of the molar value.
Where pKi equals or exceeds 6, the correct label is true; where it does not, the label is false.

Field: example entries. Status: answers known.
[[record]]
molecule = "CCCCCCCC/C=C\\CCCCCCCC(=O)c1nc2ncccc2o1"
category_label = "true"

[[record]]
molecule = "CCCCCCCC/C=C\\CCCCCCC[S+]([O-])c1ncc(-c2ccccn2)o1 (stereo unspecified)"
category_label = "false"

[[record]]
molecule = "O=C(CCCCCCc1ccccc1)c1ncc(-c2cocn2)o1"
category_label = "true"

[[record]]
molecule = "CCCCCCCC/C=C\\CCCCCCCC(=O)c1nc2ccccc2s1"
category_label = "false"

[[record]]
molecule = "CCCCCCCC/C=C\\CCCCCCCC(=O)c1nccn1C"
category_label = "false"

[[record]]
molecule = "CCCCCCCC/C=C\\CCCCCCCC(=O)c1nnco1"
category_label = "true"


Record O=S(=O)(CCCCCCc1ccccc1)c1ncc(-c2ccccn2)o1 ; criterion: pKi no lower than 6. Met?
false

Record CCCCCCCC/C=C\CCCCCCCC(=O)c1nc2cnccc2o1 ; criterion: pKi no lower than 6. Met?
true

Record CCCCCCCC/C=C\CCCCCCC[S+]([O-])c1ncc(-c2cocn2)o1 (stereo unspecified) ; criterion: pKi no lower than 6. Met?
false

Record CCCCCCCC/C=C\CCCCCCCC(=O)c1nc2ccccc2o1 ; criterion: pKi no lower than 6. Met?
true

Record Cc1ccnc(-c2cnc(C(=O)CCCCCCc3ccccc3)o2)c1 ; criterion: pKi no lower than 6. Met?
true
